Entries and their measured DC50 follow.
- Target: Human BCL-XL protein (N-terminal HiBiT tagged BCL-XL expressed in HT1080 cells) (Homo sapiens, UniProt Q07817)
- Construct: expressed in transfected cells; host or cells: HT-1080 (ATCC CCL-121), stably transduced with lentivirus pLV-UBC-N-HiBiT-BCL-XL-PGK-puro and selected with puromycin
- Sequence (Q07817 whole entry): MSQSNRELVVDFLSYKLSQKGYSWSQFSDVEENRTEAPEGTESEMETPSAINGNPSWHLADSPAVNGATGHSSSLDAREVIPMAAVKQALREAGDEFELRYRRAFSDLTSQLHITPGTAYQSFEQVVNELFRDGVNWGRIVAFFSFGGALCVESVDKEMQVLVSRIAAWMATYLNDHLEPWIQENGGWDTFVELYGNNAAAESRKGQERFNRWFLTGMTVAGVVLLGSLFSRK
- Test Name: HiBiT Based Degradation Assay
- Type: cell-based
- Condition: BCL-XL degradation, HT1080 cells expressing N-HiBiT-BCL-XL, 24 hours incubation, normalized with DMSO control; geometric mean for multiple data points; read-out: EC50 (24 h)

// worked examples, DC50 included
Input Cc1cc(O[C@H](C)CCC2CCN(CC(=O)Nc3ccc4c(C5CCC(=O)NC5=O)nn(C)c4n3)CC2)ccc1-c1ccc(N2CCc3cccc(C(=O)Nc4nc5ccccc5s4)c3C2)nc1C(=O)O (single isomer, unassigned) [Compound 225b] . Output DC50: 10 to 100 nM

Input COc1c(NC(=O)CN2CCC(CCCOc3ccc(-c4ccc(N5CCc6cccc(C(=O)Nc7nc8ccccc8s7)c6C5)nc4C(=O)O)c(C)c3)CC2)ccc2c(C3CCC(=O)NC3=O)nn(C)c12 (stereo not drawn) [Compound 105] . Output DC50: 10 to 100 nM

Input COc1c(NC(=O)CN2CCC3(CC2)CC(COc2cccc(-c4ccc(N5CCc6ccnc(C(=O)Nc7nc8ccccc8s7)c6C5)nc4C(=O)O)c2C(F)(F)F)C3)ccc2c(C3CCC(=O)NC3=O)nn(C)c12 (stereo not drawn) [Compound 162] . Output DC50: 10 to 100 nM

---
Input Cn1nc(C2CCC(=O)NC2=O)c2ccc(NC(=O)CN3CCC4(CC3)CC(COc3ccc(-c5ccc(N6CCc7ccnc(C(=O)Nc8nc9ccccc9s8)c7C6)nc5C(=O)O)c(C(F)(F)F)c3)C4)cc21 (stereo not drawn) [Compound 160] . Output DC50: < 10 nM

Input COc1c(NC(=O)CN2CCC3(CC2)CC(Oc2ccc(-c4ccc(N5CCc6cccc(C(=O)Nc7nc8ccccc8s7)c6C5)nc4C(=O)O)c(C)c2)C3)ccc2c(C3CCC(=O)NC3=O)nn(C)c12 (stereo not drawn) [Compound 170] . Output DC50: < 10 nM

Input COc1c(NC(=O)CN2CC[C@@H](CCCOc3cccc(-c4ccc(N5CCc6ccnc(C(=O)Nc7nc8ccccc8s7)c6C5)nc4C(=O)O)c3C)C[C@@H]2C)ccc2c(C3CCC(=O)NC3=O)nn(C)c12 (stereo partly drawn) [Compound 216b] . Output DC50: < 10 nM

Input Cn1nc(C2CCC(=O)NC2=O)c2ccc(NC(=O)CN3CCC4(CC3)CC(Oc3ccc(-c5ccc(N6CCc7ccnc(C(=O)Nc8nc9ccccc9s8)c7C6)nc5C(=O)O)c(C(F)(F)F)c3)C4)nc21 (stereo not drawn) [Compound 206] . Output DC50: 10 to 100 nM

Input COc1c(NC(=O)CN2CCC3(CC2)CC(Oc2cccc(-c4ccc(N5CCc6cccc(C(=O)Nc7nc8ccccc8s7)c6C5)nc4C(=O)O)c2C)C3)ccc2c(C3CCC(=O)NC3=O)nn(C)c12 (stereo not drawn) [Compound 164] . Output DC50: 10 to 100 nM

====

- Target: Human BCL-XL protein (N-terminal HiBiT tagged BCL-XL expressed in HT1080 cells) (Homo sapiens)
- Construct: expressed in transfected cells; host or cells: HT-1080 (ATCC CCL-121), stably transduced with lentivirus pLV-UBC-N-HiBiT-BCL-XL-PGK-puro and selected with puromycin
- Test Name: HiBiT Based Degradation Assay
- Type: cell-based
- Condition: BCL-XL degradation, HT1080 cells expressing N-HiBiT-BCL-XL, 24 hours incubation, normalized with DMSO control; geometric mean for multiple data points; read-out: EC50 (24 h)
Entries and their measured DC50 follow.

// worked examples, DC50 included
Input COc1c(NC(=O)CN2CCC(CC[C@H](C)Oc3ccc(-c4ccc(N5CCc6cccc(C(=O)Nc7nc8ccccc8s7)c6C5)nc4C(=O)O)c(C)c3)CC2)ccc2c(C3CCC(=O)NC3=O)nn(C)c12 (single isomer, unassigned) [Compound 223a] . Output DC50: 10 to 100 nM

Input Cc1cc(OCCCC2CCN(CCCc3ccc4c(C5CCC(=O)NC5=O)nn(C)c4c3)CC2)ccc1-c1ccc(N2CCc3cccc(C(=O)Nc4nc5ccccc5s4)c3C2)nc1C(=O)O (stereo not drawn) . Output DC50: < 10 nM

Input COc1c(NC(=O)CN2CCC3(CC2)CC(Oc2ccc(-c4ccc(N5CCc6ccnc(C(=O)Nc7nc8ccccc8s7)c6C5)nc4C(=O)O)c(C(F)(F)F)c2)C3)ccc2c(C3CCC(=O)NC3=O)nn(C)c12 (stereo not drawn) . Output DC50: 10 to 100 nM

Input Cc1cc(OCC2CC3(CCN(CC(=O)Nc4ccc5c(C6CCC(=O)NC6=O)nn(C)c5c4C)CC3)C2)ccc1-c1ccc(N2CCc3cccc(C(=O)Nc4nc5ccccc5s4)c3C2)nc1C(=O)O (stereo not drawn) . Output DC50: < 10 nM

Input Cn1nc(C2CCC(=O)NC2=O)c2ccc(NC(=O)CN3CCC4(CC3)CC(COc3cccc(-c5ccc(N6CCc7cccc(C(=O)Nc8nc9ccccc9s8)c7C6)nc5C(=O)O)c3C(F)(F)F)C4)nc21 (stereo not drawn) . Output DC50: 10 to 100 nM

---
Input Cc1cc(OC2CC3(CCN(CC(=O)Nc4ccc5c(C6CCC(=O)NC6=O)nn(C)c5c4)CC3)C2)ccc1-c1ccc(N2CCc3cccc(C(=O)Nc4nc5ccccc5s4)c3C2)nc1C(=O)O (stereo not drawn) . Output DC50: < 10 nM

Input Cc1c(OC[C@H]2C[C@@H]2C2CCN(CC(=O)Nc3ccc4c(C5CCC(=O)NC5=O)nn(C)c4c3)CC2)cccc1-c1ccc(N2CCc3cccc(C(=O)Nc4nc5ccccc5s4)c3C2)nc1C(=O)O (single isomer, unassigned) [Compound 1001b] . Output DC50: 10 to 100 nM

Input Cc1c(OCCCC2CCN(CCOc3ccc4c(C5CCC(=O)NC5=O)nn(C)c4c3)CC2)cccc1-c1ccc(N2CCc3cccc(C(=O)Nc4nc5ccccc5s4)c3C2)nc1C(=O)O (stereo not drawn) . Output DC50: < 10 nM

Input COc1c(NC(=O)CN2CCC(CCCOc3ccc(-c4ccc(N5CCc6cccc(C(=O)Nc7nc8ccccc8s7)c6C5)nc4C(=O)O)c(F)c3)CC2)ccc2c(C3CCC(=O)NC3=O)nn(C)c12 (stereo not drawn) . Output DC50: 10 to 100 nM
